Data credit: the RNAGym collection of RNA variant scans (doi:10.1073/pnas.2313332121)

B1: TPR 5TU (parent)
chain: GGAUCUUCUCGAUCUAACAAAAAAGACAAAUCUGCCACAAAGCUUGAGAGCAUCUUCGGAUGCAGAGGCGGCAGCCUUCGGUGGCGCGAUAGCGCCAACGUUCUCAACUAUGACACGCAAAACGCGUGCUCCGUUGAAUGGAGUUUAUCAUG

- Variants of: B1
- method-notes: polymerase ribozyme fitness, log enrichment relative to wild type (log ratio); higher = more active; in vitro selection for triplet polymerase activity
Variants at the floor of the assay were thinned out.
property-name: polymerase ribozyme fitness (log ratio)
Please give only the number in your answer, with no unit.

I would be grateful if you could share the reported polymerase ribozyme fitness (log ratio) for C63U C96U A150G .
-1.22

I would be grateful if you could share the reported polymerase ribozyme fitness (log ratio) for A40C A97U .
-0.185

I would be grateful if you could share the reported polymerase ribozyme fitness (log ratio) for U55G G62A G92U C96A .
-3.44

I would be grateful if you could share the reported polymerase ribozyme fitness (log ratio) for G84U G86A C93U C123U .
-1.15

I would be grateful if you could share the reported polymerase ribozyme fitness (log ratio) for U82G G86U C123U .
-1.47
